Reported pIC50 values for a set of compounds
target: UniProt:Q5FMQ6; assay: end-point fluorogenic deacylase assay; type: biochemical
Sequence (Q5FMQ6 1-239): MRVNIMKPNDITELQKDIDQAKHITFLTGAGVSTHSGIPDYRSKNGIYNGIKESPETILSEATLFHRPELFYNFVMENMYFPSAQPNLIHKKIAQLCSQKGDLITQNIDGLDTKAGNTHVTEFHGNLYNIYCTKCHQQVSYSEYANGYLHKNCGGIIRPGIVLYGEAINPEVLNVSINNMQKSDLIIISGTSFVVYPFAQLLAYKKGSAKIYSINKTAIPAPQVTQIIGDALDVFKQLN
Schema: pIC50 number; meaning minus log10 of the concentration expressed in molar units.

Please review the entries below; each comes with its answer.
{"columns": ["compound", "target.entity", "pIC50"],
 "data": [
  ["NC(=O)c1cccnc1 [nicotinamide]", "UniProt:Q5FMQ6", 3.46],
  ["CC(=S)NCCCC[C@H](NC(=O)OCc1ccccc1)C(=O)N[C@@H](Cc1c[nH]c2ccccc12)C(=O)NC(C)C [compound 6, thioacetamide 6]", "UniProt:Q5FMQ6", 4.82]
]}

Next item in the queue.
input: Report pIC50 from UniProt:Q5FMQ6 testing of Cc1ccc(C(=O)Nc2ccc(S(=O)(=O)O)c3cc(S(=O)(=O)O)cc(S(=O)(=O)O)c23)cc1NC(=O)c1cccc(NC(=O)Nc2cccc(C(=O)Nc3cc(C(=O)Nc4ccc(S(=O)(=O)O)c5cc(S(=O)(=O)O)cc(S(=O)(=O)O)c45)ccc3C)c2)c1 [suramin]
output: 4.00

This collection of values is drawn from paper doi:10.1101/252379v1.
